Catalogue of Neut IC50 (µg/ml) subtype A values
Biological target: RSV F protein of subtype A (strain A2) on recombinant mKate-RSV virus (Respiratory syncytial virus subtype A …, UniProt P03420 26-574)
Assay: cell-based or functional assay
Number first, unit second: that is the form wanted.

For orientation, consider the following solved cases.
binder	assay.endpoint	result
ADI-18889 (antibody, V domains shown, full-length IgG from yeast; also called Antibody Number 244; Ab # 244) VH: QVQLQQWGAGLWKPSQTLSLTCAVHGGSLSGYSWSWIRQSPGRGLEWIGEVNRRGTTNYNPSLKGRVSISWDTSKNQVSLSLRSVTAADTATYYCAGTNVGFVNTHNDYYFGMDVWGQGTTVTVSS VL: DIVMTQSPSSLSASVGDRVTITCRASQSISNYVNWYQKKTGQVPKLLIYGASNLESGVPSRFSGGGSGTDFTLTISSLQPEDFATYYCQQSYSVPLTFGGGTKVEIK	Neut IC50 (µg/ml) subtype A	0.04 µg/mL
ADI-18898 (antibody, V domains shown, full-length IgG from yeast) VH: QVQLVQSGTEVKKPGASVKVSCKAAGYTFSNYGVSWVRQAPGQGLEWMGWISAYNGNTKFAQKVQGRLTMTTDTSTSTAYMELRNLRSDDTAVYYCARESGATAAAMFDYWGQGTLVTVSS VL: EIVLTQSPLSLPVTLGQPASISCRSSQSLEYSDGNIYLSWFQQRPGQSPRRLIYKVSHRDSGVPDRFSGSGSGTDFTLKIARVEAEDVAVYYCMQAIHWPRTFGQGTKVEIK	Neut IC50 (µg/ml) subtype A	0.03 µg/mL

Next, consider the following binder.
Q: Look up Neut IC50 (µg/ml) subtype A for this binder: ADI-18892 (antibody, V domains shown, full-length IgG from yeast) VH: QVQLVQSGAEVKEPGASVRVSCKASGYTFTSYGISWVRQAPGQGLEWMGWISAYNGNTNYAQKFQGRVTVTTDTSTSAAYMELRSLRSDDTAIYYCARDSFSLTGAGFPDYWGQGTLVTVSS VL: EIVMTQSPLSLPVTLGQPASISCRSSQSLVYSDGNTYLNWFQQRPGQSPRRLIYKVSNRDSGVPDRFSGSGSDTDFTLKISRVEAEDVGVYYCMQATQWPRTFGQGTKVEIK
Ans: 0.018 µg/mL
